Settings: buffer; pH 7.4; 200.0 µM

| compound | relational.operator | solubility kinetic [µg/mL] |
| --- | --- | --- |
| CN1CCN(CCc2nc3cc(NC(=O)c4ccco4)ccc3n2C)CC1 | > | 55.1 |
| CCCS(=O)(=O)c1ccc(COC(=O)c2ccc(NC(C)=O)cc2)cc1 | = | 25.5 |
| N#CC1(NC(=O)CSc2nnc3n2CCCCC3)CCCCC1 | > | 50 |
| COC(=O)c1[nH]c2ccccc2c1NC(=O)C(C)N1CC(C)OC(C)C1 (centres undefined) | > | 53.9 |
| CCN(CC(=O)N1CCCC1)S(=O)(=O)c1ccc(OC)cc1 | = | 44.7 |
| Cc1cccc(CN2CCN(c3ccc(Cl)cc3)CC2)c1 | = | 2 |
| Cc1ccnc(Nc2nc(-c3ccc(O)c(O)c3)cs2)c1 | = | 8.7 |
| NS(=O)(=O)c1cccc(NC(=O)c2cccc(N3C(=O)c4ccccc4C3=O)c2)c1 | = | 12.2 |
| CCOC(=O)Cc1csc(NC(=O)CCc2ccccc2)n1 | = | 41 |
| Cn1c(SCC(=O)Nc2cccnc2Cl)nnc1-c1ccco1 | > | 52.5 |
| O=C(CCc1nc(-c2ccccc2F)no1)Nc1cccnc1 | > | 46.8 |
| Cc1onc(-c2ccccc2)c1C(=O)NN1CCOCC1 | > | 43.1 |
| COC(=O)c1cn(C(=O)c2ccc(Cl)cc2)c2ccccc12 | = | 1.6 |
| Cc1ccc2c(c1)cc(C(=O)NCc1ccccc1)n2C | = | 3.5 |
| Nc1nc2nc(-c3ccccc3)cc(C(F)(F)F)c2s1 | = | 4.1 |
| Cc1cc(C)c(S(=O)(=O)Nc2ccccn2)c(C)c1 | = | 4.7 |
| Nc1ccc(NC(=O)c2cccs2)cc1 | > | 32.7 |
| Cc1nc(Nc2cccc(F)c2)c2oc3ccccc3c2n1 | < | 0.2 |
| Cn1cc(C(=O)C(=O)N2CCCC2)c2ccccc21 | > | 38.4 |
| CCOc1cc(C(=O)OCc2cc(=O)n3c(C)csc3n2)ccc1OC | = | 3.1 |
| O=C(O)/C=C/C(=O)Nc1ccc(Cc2ccc(NC(=O)/C=C/C(=O)O)cc2)cc1 | = | 58 |
| CSc1ncccc1C(=O)N1CCN(C(=O)c2ccccc2)CC1 | > | 51.2 |
| COc1cc(NC(=O)NC2Cc3ccccc3C2)cc(OC)c1 | < | 0.3 |
| Cc1cc(C)cc(NC(=O)CN2C(=O)c3ccccc3C2=O)c1 | = | 0.5 |
